# TESTED TARGET: Human PD-L1/PD-1 (Homo sapiens)
# Construct: TVMV protease cleavage site (C); made in house; host or cells: HEK293T cells
# Sequence (Q9NZQ7 with tags, fused parts or gaps): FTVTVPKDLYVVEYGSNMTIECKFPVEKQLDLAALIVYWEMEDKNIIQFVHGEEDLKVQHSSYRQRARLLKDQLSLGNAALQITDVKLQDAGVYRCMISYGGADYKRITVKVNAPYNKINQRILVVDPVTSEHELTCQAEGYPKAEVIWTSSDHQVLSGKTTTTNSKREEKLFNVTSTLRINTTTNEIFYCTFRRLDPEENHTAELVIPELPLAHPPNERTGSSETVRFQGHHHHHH
# ASSAY NOTES: HTRF Human PD-L1/PD-1 binding assay (PD-1-Ig/PD-L1-His)
# CONDITION DETAILS: PD-L1-His 10 nM, PD-1-Ig 20 nM; class symbol; read-out: HTRF Human PD-L1/PD-1 Binding Assay IC50 Range
# Excerpt: Methods for Testing the Ability of Macrocyclic Peptides to Compete for the Binding of PD-1 to PD-L1 Using Homogenous Time-Resolved Fluorescence (HTRF) Binding Assays The ability of the macrocyclic peptides of the present disclosure to bind to PD-L1 was investigated using a PD-1/PD-L1 Homogenous Time-Resolved Fluorescence (HTRF) binding assay. Homogenous Time-Resolved Fluorescence (HTRF) Assays of Binding of Soluble PD-1 to Soluble PD-L1. […]
pIC50: −log10 of the molar value. Where a SMILES comes first, the peptide text is derived from it. Bridges are numbered along the chain shown (N, C = ends). [ ]: non-standard residue; d: D form. ξ: configuration not given here. Phe(4-F) = N[C@@H](Cc1ccc(F)cc1)C(=O)O; NMeIle(3ξ) = CCC(C)[C@H](NC)C(=O)O; NMeF = CN[C@@H](Cc1ccccc1)C(=O)O; NMeNle = CCCC[C@H](NC)C(=O)O; NMeV = CN[C@H](C(=O)O)C(C)C; Orn = NCCC[C@H](N)C(=O)O
ENDPOINT NAME: pIC50

>  <COMPOUND>
CCCC[C@H]1C(=O)N(C)[C@@H](CCCC)C(=O)N[C@@H](CN)C(=O)N[C@H](C(=O)NCC(N)=O)CSCC(=O)N[C@@H](Cc2ccc(O)cc2)C(=O)N(C)[C@@H](C)C(=O)N[C@@H](CC(N)=O)C(=O)N2CCC[C@H]2C(=O)N[C@@H](Cc2c[nH]cn2)C(=O)N[C@@H](CC(C)C)C(=O)N2CCC[C@H]2C(=O)N[C@@H](Cc2c[nH]c3ccccc23)C(=O)N[C@@H](CO)C(=O)N[C@@H](Cc2c[nH]c3ccccc23)C(=O)N1C [Example 5182]

>  <pIC50>
7.00 to 8.00

$$$$
>  <COMPOUND>
CCCC[C@H]1C(=O)N2CCC[C@@H]2C(=O)N[C@@H](CC(=O)O)C(=O)N[C@@H](C(C)C)C(=O)N(C)[C@@H](C(C)C)C(=O)N[C@@H](CCC(N)=O)C(=O)N2CCC[C@@H]2C(=O)N[C@@H](Cc2c[nH]c3ccccc23)C(=O)N[C@@H](Cc2ccc(O)cc2)C(=O)N[C@@H](CCCN)C(=O)N[C@H](C(=O)NCC(N)=O)CSCC(=O)N[C@@H](Cc2ccc(F)cc2)C(=O)N(C)[C@@H](Cc2ccccc2)C(=O)N1C [Example 9247] ({CH2CO}-[Phe(4-F)][NMeF][NMeNle][dP]DV[NMeV]Q[dP]WY[Orn]CG-NH2; thioether N-13)

>  <pIC50>
5.00 to 6.00

$$$$

Entry CCCC[C@H]1C(=O)N2CCC[C@@H]2C(=O)N[C@@H](CC(=O)O)C(=O)N[C@@H](C(C)C)C(=O)N(C)[C@@H](C(C)CC)C(=O)N[C@@H](Cc2ccc(O)cc2)C(=O)N2CCC[C@@H]2C(=O)N[C@@H](Cc2c[nH]c3ccccc23)C(=O)N[C@@H](Cc2ccc(O)cc2)C(=O)N[C@@H](CC(C)C)C(=O)N[C@H](C(=O)NCC(N)=O)CSCC(=O)N[C@@H](Cc2ccc(F)cc2)C(=O)N(C)[C@@H](Cc2ccccc2)C(=O)N1C (stereo partly drawn) [Example 9257] ({CH2CO}-[Phe(4-F)][NMeF][NMeNle][dP]DV[NMeIle(3ξ)]Y[dP]WYLCG-NH2; thioether N-13) — recorded pIC50 = 5.00 to 6.00
